src = the supplement of paper PMC10567573

experiment: protein stability index of a GFP-peptide fusion (GPS, HEK-293T) (PSI 1-6); higher = more stable; conditions: treatment: DMSO; c terminus: a fixed tail appended;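 also: 24-mer peptide tiles fused after GFP, lentivirally expressed, FACS-sorted into six equal bins by GFP/DsRed ratio, decoded by Illumina sequencing, PSI is the read-weighted mean bin number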
Binary classification by protein stability index, with 3 as an inclusive lower bound for YES; all other cases are NO.

[
  {
    "Query sequence": "SEIIQITTGSKELDKLLQGGIETG [RAD51]",
    "Class name": "YES"
  },
  {
    "Query sequence": "MPSETLWEIAKAEVEKRGINGSEG [DYNC2LI1]",
    "Class name": "YES"
  },
  {
    "Query sequence": "GDSDSALDSVSPCPSSPKQIHLDV [DLC1]",
    "Class name": "YES"
  },
  {
    "Query sequence": "GTKQGHLLLYRIRKDVGCNRFEVT [VPS39]",
    "Class name": "NO"
  },
  {
    "Query sequence": "TCRNPACGPQWEMSEWSECTAKCG [ADAMTSL2]",
    "Class name": "YES"
  },
  {
    "Query sequence": "AYDEALAELHAHGPAAFVDYFERN [ZSWIM9]",
    "Class name": "YES"
  },
  {
    "Query sequence": "LEAELLQIEERHQEKKRKFLESTD [SMARCE1]",
    "Class name": "YES"
  },
  {
    "Query sequence": "LSEEERSEKAMLRSRIEEQSQLIC [CCDC89]",
    "Class name": "YES"
  }
]

Task: Confirm if protein stability index reported for the sequence ELGGKNPAIIFEDANLDECIPATV [ALDH8A1] is 3 or above.
Output: YES

Task: Textbook exercise: given the entry SDPARYEFLWGPRAHAEIRKMSLL [MAGEA10] , state whether its protein stability index is greater than or equal to 3.
Output: NO

Task: Evaluate EIIKVTEQLIEAISNGDFESYTKM [CAMK2A] : protein stability index at minimum 3?
Output: NO

Task: Is the recorded value of protein stability index equal to or greater than 3 for this sequence? GFCFFNSVAVAARHAQTISGHALR [HDAC6]
Output: NO

Task: # check: protein stability index of EQLRREKIDLENTLEQEQEALVNR [CCDC6] is greater than or equal to 3
Output: YES

Task: Is reported protein stability index greater than or equal to 3 here: DAKARKQEIIKTTEQLIEAVNNGD [CAMK2B]
Output: YES

Task: In plain terms: is recorded protein stability index at least 3 for PLYLLTWKIAPAMAAGNTVIAKPS [ALDH8A1] ?
Output: NO

Task: Reported protein stability index at or above 3? FHHIPSTCQRVNGIKVQNGGIVTD [SLC19A2]
Output: NO

Task: Decide: protein stability index of PHHHSFYDFIVTKARGKSGPLFNF [FAM50A] >= 3?
Output: NO

Task: hey, is protein stability index for this one >= 3? CKRMDLVCQRMLNQGFLKVERYHN [FBXO28]
Output: NO

Task: # bool: protein stability index of AQALGYYYVLEPRVVDGTPCSPDS [ADAMTS4] >= 3
Output: NO

Task: Does DLSMKGGASTTSTTPSALSGEPPT [NOL4L] have a reported protein stability index of at least 3?
Output: YES

Task: State whether the measured protein stability index reaches 3, counting equality as reaching it, for TELLAERFYYQALSVAPQIGMPFN [SMG5]
Output: NO

Task: Please tell me: is the sequence MKSYSFLREAVPGILRARRGEGIQ [SOAT2] at or over 3 in terms of protein stability index?
Output: NO
